tested on: NF-κB activation; experiment: NF-κB activation reporter assay (pNFκB-Luc luciferase) under TNF-α stimulation; format: cell-based, human; conditions: Homo sapiens; Concentration of the agent: 1 μg/mL; HepG2 or HeLa cells, TNF-α 40 ng/ml, 4 hours; read-out: The rate of inhibitory activity against NF-κB activation (%)
endpoint_name: inhibition at 1 µg/mL (%)
Respond with the bare value in %.

Examples from the recorded data:
{"molecule": "O=C(Nc1nc(C(F)(F)F)c(-c2ccccc2)s1)c1cc(Br)ccc1O", "system_tested": "NF-κB activation", "reported_measurement": 85.1}
{"molecule": "O=C(Nc1cc(Cl)cc(Cl)c1)c1cc(Br)ccc1O", "system_tested": "NF-κB activation", "reported_measurement": 77.1}
{"molecule": "O=C(Nc1ccccc1O)c1cc(C(F)(F)F)cc(C(F)(F)F)c1", "system_tested": "NF-κB activation", "reported_measurement": 28.4}
{"molecule": "CC(=O)c1cccc(NC(=O)c2cc(Cl)ccc2O)c1", "system_tested": "NF-κB activation", "reported_measurement": 14.5}
{"molecule": "O=C(Nc1cc(Cl)cc(Cl)c1)c1cc(F)ccc1O", "system_tested": "NF-κB activation", "reported_measurement": 94.2}

Any idea what inhibition at 1 µg/mL was measured for "O=C(O)Cc1sc(NC(=O)c2cc(Br)ccc2O)nc1-c1ccccc1" ?
2.4

Any idea what inhibition at 1 µg/mL was measured for "Cc1nc(NC(=O)c2cc(Br)ccc2O)sc1-c1cccc(C(F)(F)F)c1" ?
-32.4

Any idea what inhibition at 1 µg/mL was measured for O=C(NC1Cc2ccc(C(=O)N3CCOCC3)cc2C1)c1cc(Br)ccc1O (stereo not shown) ?
54.2
